Collected from the literature: IC50 of various molecules toward Cytochrome P450 1A2 (Homo sapiens, UniProt P05177).
Target: Cytochrome P450 1A2 (Homo sapiens, UniProt P05177)
Sequence (P05177 whole entry): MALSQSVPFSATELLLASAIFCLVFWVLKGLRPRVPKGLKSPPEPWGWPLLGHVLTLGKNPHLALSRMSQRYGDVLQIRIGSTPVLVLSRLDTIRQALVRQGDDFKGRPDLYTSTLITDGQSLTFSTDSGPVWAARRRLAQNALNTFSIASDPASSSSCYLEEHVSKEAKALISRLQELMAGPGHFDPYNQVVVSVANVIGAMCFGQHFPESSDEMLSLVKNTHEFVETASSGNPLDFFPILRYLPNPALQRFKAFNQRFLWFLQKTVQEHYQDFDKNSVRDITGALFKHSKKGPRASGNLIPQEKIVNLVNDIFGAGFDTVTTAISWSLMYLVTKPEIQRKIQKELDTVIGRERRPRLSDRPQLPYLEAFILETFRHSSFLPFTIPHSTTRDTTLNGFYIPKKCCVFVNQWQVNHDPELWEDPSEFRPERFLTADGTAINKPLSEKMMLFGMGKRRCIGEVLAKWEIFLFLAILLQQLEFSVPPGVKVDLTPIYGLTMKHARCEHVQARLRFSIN
outcome.measure: IC50

molecule	observed.value
Cc1c(C(=O)N2CCN(Cc3ccc(OCC(F)(F)F)cc3)CC2)nnn1Cc1ccc(C(=O)Nc2ccc(C(F)(F)F)cc2)nc1	> 50 µM
COC(=O)C1=C(C)NC(C)=C(C(=O)OC(C)C)C1c1cccc2nonc12 (centres undefined)	28.3 µM
Cc1cc(C(F)(F)F)ccc1-c1cc2cn([C@@H](CC(C)C)c3ccc(C(=O)NCCC(=O)O)cc3)nc2cc1C	> 10 µM
CC(C)S(=O)(=O)c1ccc(O[C@@H](C)C(F)(F)F)c(C(=O)N2Cc3cn(-c4ccccc4)nc3C2)c1	> 10 µM

====

Collected from the literature: IC50 of various compounds toward Cytochrome P450 1A2 (Homo sapiens).

molecular.string	IC50
C[C@H](CC[C@](C)(O)C(F)(F)F)[C@H]1CC[C@H]2[C@@H]3CC=C4C[C@@](C)(O)CC[C@]4(C)[C@H]3CC[C@]12C	> 100 µM
CC(C)C[C@](C)(N)COc1ccc(-c2ccnc(C(F)F)c2)nc1C(F)F	> 20 µM
c1ccc(CC[C@@H]2CN(Cc3nc4ccccc4[nH]3)CCO2)cc1	13.1 µM
Cc1ccc(C(=O)O)c(C)c1NC(=O)c1cc(-c2cccc(Cl)c2)cc2ccccc12	> 10 µM
NCC#Cc1cnccc1-c1ccco1	1.4 µM
Cc1cccc(Cl)c1C(=O)c1cn(-c2ccc(C(=O)O)cc2F)c2ncccc12	> 50 µM
Cc1cccc2nc(C(=O)N[C@H]3CC[C@@H](NC(=O)c4cc(F)cnc4Oc4cccc(-c5ccc(CN6C[C@@H](C)N[C@@H](C)C6)cc5)c4)CC3)cn12	> 1 µM
CCCS(=O)(=O)c1ccc2nc(-c3cn(-c4ccccc4)ccc3=O)[nH]c2c1	> 20 µM
CC(=O)N[C@@H](C)/C=C/c1nnc(Oc2ccc(OCC3CC3)cc2Cl)s1	> 20 µM
CC(C)C[C@H](NC(=O)[C@H](CCc1ccccc1)NC(=O)CN1CCOCC1)C(=O)N[C@@H](Cc1ccccc1)C(=O)N[C@@H](CC(C)C)C(=O)[C@@]1(C)CO1	> 10 µM
Cl.Cl.Cl.NCc1ccc(-c2cnccc2-c2ccncc2)s1	4.8 µM
O=C(NC1CC1)c1cn(-c2cccc(-c3ccc([C@@H]4C[C@H]4C(=O)O)c(F)c3)c2)c2ncccc2c1=O	> 100 µM
